Biological target: αvβ3 receptor (Homo sapiens, UniProt P05106+P06756)
Construct: αvβ3 from human A375 cells was purified; endogenous in cells; host or cells: human A375 cells (receptor purified from the cells, analogous to Wong et al. 1996)
Sequence (P06756 31-889 limits assumed): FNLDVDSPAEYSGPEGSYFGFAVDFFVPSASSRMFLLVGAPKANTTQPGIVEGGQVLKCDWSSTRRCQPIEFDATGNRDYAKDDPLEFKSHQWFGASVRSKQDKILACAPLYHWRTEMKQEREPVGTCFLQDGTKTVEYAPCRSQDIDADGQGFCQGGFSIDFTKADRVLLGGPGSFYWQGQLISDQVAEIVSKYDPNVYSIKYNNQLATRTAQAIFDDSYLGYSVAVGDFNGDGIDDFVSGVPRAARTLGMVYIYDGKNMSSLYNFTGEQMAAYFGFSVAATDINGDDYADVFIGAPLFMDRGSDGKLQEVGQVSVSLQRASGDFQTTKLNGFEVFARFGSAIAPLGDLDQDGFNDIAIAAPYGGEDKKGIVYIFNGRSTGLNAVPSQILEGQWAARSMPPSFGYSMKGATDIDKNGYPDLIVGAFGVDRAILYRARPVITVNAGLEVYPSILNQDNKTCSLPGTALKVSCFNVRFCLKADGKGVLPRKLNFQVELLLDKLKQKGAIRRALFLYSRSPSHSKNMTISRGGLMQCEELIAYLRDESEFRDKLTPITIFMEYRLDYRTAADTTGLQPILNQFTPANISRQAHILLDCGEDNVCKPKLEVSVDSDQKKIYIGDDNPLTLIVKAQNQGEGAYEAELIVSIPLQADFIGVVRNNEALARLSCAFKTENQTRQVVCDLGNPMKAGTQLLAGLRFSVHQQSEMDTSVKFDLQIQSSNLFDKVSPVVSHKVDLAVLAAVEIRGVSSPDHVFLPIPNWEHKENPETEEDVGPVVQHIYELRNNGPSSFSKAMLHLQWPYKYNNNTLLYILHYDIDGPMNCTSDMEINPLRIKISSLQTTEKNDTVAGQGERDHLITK
Sequence (P06756 891-1048 partner limits assumed): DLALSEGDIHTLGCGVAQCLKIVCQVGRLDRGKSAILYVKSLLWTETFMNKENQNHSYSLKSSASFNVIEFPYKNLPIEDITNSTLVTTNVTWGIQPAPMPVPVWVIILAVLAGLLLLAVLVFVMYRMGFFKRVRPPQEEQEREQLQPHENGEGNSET
Sequence (P05106 27-788): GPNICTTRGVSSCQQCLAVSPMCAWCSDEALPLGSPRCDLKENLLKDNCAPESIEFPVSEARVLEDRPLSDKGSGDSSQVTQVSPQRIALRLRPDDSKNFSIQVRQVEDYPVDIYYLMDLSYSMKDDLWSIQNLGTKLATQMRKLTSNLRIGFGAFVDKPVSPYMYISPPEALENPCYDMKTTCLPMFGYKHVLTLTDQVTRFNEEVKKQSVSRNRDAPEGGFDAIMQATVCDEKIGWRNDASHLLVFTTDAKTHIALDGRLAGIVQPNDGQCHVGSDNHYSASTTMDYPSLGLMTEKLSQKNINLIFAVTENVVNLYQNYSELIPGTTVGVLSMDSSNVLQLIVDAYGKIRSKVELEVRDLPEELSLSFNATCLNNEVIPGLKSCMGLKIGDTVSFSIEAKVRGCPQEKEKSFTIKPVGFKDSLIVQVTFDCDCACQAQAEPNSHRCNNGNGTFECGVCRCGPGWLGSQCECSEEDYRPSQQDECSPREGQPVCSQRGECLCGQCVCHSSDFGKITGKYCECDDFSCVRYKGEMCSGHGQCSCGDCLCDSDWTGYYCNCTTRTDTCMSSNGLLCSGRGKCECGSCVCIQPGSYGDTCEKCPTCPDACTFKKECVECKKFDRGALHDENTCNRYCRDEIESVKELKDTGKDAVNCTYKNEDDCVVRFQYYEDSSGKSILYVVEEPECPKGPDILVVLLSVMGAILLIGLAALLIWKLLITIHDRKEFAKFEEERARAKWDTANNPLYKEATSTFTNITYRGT
Test: αvβ3 binding test (echistatin displacement, WGA SPA beads)
Conditions: IC50 values of the binding to the αvβ3 receptor, αvβ3 from human A375 cells
*1 amine or outer side, *2 acyl side, *3 side chain or, on linkers, in order; H or OH if unused. Where a SMILES comes first, the peptide text is derived from it. [ ]: non-standard residue; d: D form. The star is where a group is joined. Camptothecin(20R,20-O) = CC[C@]1(O*)C(=O)OCc2c1cc1n(c2=O)Cc2cc3ccccc3nc2-1; X1 = CCCNC(=O)Nc1cccc(S(=O)(=O)Nc2cccc(C(CC(=O)O)N*)c2)c1; NH(1,4-C6H4)NHCS = S=C(Nc1ccc(N[*:1])cc1)[*:2]; CO = O=C([*:1])[*:2]
endpoint_label: IC50 (µM)
Just the number please, in µM, no unit attached.

// sample CCCNC(=O)Nc1cccc(S(=O)(=O)Nc2cccc(C(CC(=O)O)NC(=O)Nc3ccc(NC(=S)N4CCC[C@@H]4C(=O)N[C@@H](CC(C)C)C(=O)NCC(=O)N[C@H](CC(C)C)C(=O)N[C@H](CSC)C(=O)N[C@@H](C(=O)O[C@@]4(CC)C(=O)OCc5c4cc4n(c5=O)Cc5cc6ccccc6nc5-4)C(C)C)cc3)c2)c1 (stereo partly drawn) [Example 14] ({X1-CO}-[NH(1,4-C6H4)NHCS][dP]LG[dL][dC](Me)[dV]-{Camptothecin(20R,20-O)}) , its IC50 was 0.07
